Ref: ChEMBL document CHEMBL5550090

- measurementTarget: Cyclin-dependent kinase 5/CDK5 activator 1 (Homo sapiens) (UniProt Q00535+Q15078)
- Sequence (Q00535 whole entry): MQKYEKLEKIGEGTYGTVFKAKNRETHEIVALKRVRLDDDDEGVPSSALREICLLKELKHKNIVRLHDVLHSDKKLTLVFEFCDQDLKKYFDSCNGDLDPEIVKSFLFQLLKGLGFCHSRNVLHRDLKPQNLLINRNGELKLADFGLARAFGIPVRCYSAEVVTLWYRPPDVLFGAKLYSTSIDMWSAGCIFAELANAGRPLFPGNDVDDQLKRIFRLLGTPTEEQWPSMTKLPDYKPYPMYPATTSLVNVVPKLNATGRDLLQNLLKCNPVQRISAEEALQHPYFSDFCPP
- Sequence (Q15078 99-307 partner limits assumed): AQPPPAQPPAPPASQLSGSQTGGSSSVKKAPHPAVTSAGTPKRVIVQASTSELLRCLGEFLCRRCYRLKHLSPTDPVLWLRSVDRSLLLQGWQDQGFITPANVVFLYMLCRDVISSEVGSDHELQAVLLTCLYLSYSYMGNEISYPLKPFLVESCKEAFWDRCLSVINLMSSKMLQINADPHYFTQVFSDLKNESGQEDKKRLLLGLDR
- assayMethodText: Inhibition of human recombinant CDK5/p25 expressed in bacteria assessed as enzyme residual activity using histone H1 as substrate at 10 uM incubated for 30 mins in presence of ATP by ADP-Glo kinase assay
readoutType: Activity
Form field: result (number plus unit)

O=Cc1c[nH]c2cc3cnccc3cc12 = 57%
Nc1cc2cc3ccncc3cc2[nH]1 = 99%
c1cc2cc3c(-c4cncnc4)c[nH]c3cc2cn1 = 72%
c1cc2cc3cc[nH]c3cc2cn1 = 98%

Q: Endpoint output: Activity of Brc1c[nH]c2cc3cnccc3cc12 . Value?
Ans: 48%

Q: For COc1ncc2cc3cnccc3c([N+](=O)[O-])c2n1 then?
Ans: 80%

Q: Same again, this time with c1ccc(-c2c[nH]c3cc4cnccc4cc23)cc1
Ans: 73%

Q: What do you have for CCN(CC)Cc1c[nH]c2cc3cnccc3cc12 ?
Ans: 100%

Q: Entry to check: Ic1c[nH]c2cc3cnccc3cc12
Ans: 100%

Q: And the next one, N#Cc1c[nH]c2cc3cnccc3cc12 ?
Ans: 34%

Q: Now the compound Cn1cc(I)c2cc3ccncc3cc21
Ans: 22%

Q: # iterate: ON=Cc1c[nH]c2cc3cnccc3cc12
Ans: 32%

Q: Repeat for the following compound: CCn1ncc2cc3cnccc3c(N)c21
Ans: 28%

Q: Again, but for CN(C)Cc1c[nH]c2cc3cnccc3cc12
Ans: 97%

* * *

- measurementTarget: Dual specificity tyrosine-phosphorylation-regulated kinase 1A (Rattus norvegicus, UniProt Q63470)
- assayMethodText: Inhibition of recombinant rat DYRK1A kinase domain (1 to 499 residues) expressed in bacteria using KKISGRLSPIMTEQ as substrate incubated for 30 mins in presence of ATP by ADP-Glo kinase assay
The following compounds are shown together with reported pIC50 values.
API: returns pIC50 as number; meaning -log10 of concentration in mol/L.

O=Cc1c[nH]c2cc3cnccc3cc12 = 6.31
Brc1c[nH]c2cc3cnccc3cc12 = 6.04
Ic1c[nH]c2cc3cnccc3cc12 = 6.25
ON=Cc1c[nH]c2cc3cnccc3cc12 = 6.54
CC(=O)c1c[nH]c2cc3cnccc3cc12 = 6.07
N#Cc1c[nH]c2cc3cnccc3cc12 = 6.74
c1cc(-c2c[nH]c3cc4cnccc4cc23)ccn1 = 6.29

Q: I'd like to know its pIC50. The compound in question is Nc1nccc(-c2c[nH]c3cc4cnccc4cc23)n1
Ans: 6.25

* * *

- measurementTarget: CDK9/cyclin T1 (Homo sapiens)
- Sequence (O60563 whole entry): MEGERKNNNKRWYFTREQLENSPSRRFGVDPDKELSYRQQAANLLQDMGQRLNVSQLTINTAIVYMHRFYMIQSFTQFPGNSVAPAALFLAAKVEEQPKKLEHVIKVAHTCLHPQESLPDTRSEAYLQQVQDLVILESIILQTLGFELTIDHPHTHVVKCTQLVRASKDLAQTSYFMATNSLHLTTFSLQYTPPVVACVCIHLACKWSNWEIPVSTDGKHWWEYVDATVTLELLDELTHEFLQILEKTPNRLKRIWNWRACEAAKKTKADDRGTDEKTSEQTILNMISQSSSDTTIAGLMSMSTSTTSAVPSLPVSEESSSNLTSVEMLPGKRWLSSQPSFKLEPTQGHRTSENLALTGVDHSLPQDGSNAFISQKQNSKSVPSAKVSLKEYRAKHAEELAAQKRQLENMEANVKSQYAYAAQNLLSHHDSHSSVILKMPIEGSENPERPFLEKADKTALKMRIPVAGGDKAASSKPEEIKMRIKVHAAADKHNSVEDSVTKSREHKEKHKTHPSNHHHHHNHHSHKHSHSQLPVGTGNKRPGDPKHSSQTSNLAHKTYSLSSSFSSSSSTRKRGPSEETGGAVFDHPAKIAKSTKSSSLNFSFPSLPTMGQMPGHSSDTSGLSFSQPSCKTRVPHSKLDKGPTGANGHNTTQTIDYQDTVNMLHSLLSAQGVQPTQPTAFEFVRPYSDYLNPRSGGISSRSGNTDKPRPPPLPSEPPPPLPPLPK
- Sequence (P50750 whole entry): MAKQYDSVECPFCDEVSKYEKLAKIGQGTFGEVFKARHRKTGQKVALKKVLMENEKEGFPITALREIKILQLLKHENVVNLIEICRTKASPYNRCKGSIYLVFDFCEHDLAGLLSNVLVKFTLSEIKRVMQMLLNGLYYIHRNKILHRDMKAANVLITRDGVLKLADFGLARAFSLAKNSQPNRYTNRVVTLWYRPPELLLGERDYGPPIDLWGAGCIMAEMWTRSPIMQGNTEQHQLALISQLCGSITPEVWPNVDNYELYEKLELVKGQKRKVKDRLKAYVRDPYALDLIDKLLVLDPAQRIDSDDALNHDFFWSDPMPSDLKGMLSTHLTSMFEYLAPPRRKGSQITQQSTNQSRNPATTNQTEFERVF
- assayMethodText: Inhibition of human recombinant CDK9/cyclin T expressed in baculovirus-infected Sf9 cells using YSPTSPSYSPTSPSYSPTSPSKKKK as substrate incubated for 30 mins in presence of ATP by ADP-Glo kinase assay
Measured IC50, listed per entry for reference.
The reply should be a number in µM, with the unit left off.

Reference set, count: 3
O=Cc1c[nH]c2cc3cnccc3cc12 = 0.151
N#Cc1c[nH]c2cc3cnccc3cc12 = 0.178
ON=Cc1c[nH]c2cc3cnccc3cc12 = 0.222

Then this molecule:
Q: Checklist item: IC50 tested on CDK9/cyclin T1 (Homo sapiens), entry Brc1c[nH]c2cc3cnccc3cc12 , value?
Ans: 0.999
